Exercise: for every item that follows, state its recorded pKd.
Target: T1, Recombinant human NRG1-β ECD domain (R&D Systems, cat#377-HB/CF) (human, UniProt Q02297-11 121-191, limits assumed)
T1 construct: also called NRG1-beta; HRG1β
T1 sequence: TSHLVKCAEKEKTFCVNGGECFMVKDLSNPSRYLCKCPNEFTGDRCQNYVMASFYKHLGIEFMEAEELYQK
Experiment: SPR (BIAcore T100), IgG captured by anti-human Fc; table under the head '125nM NRG-beta'; this table is identical to that of FIG. 9 (NRG1-alpha) and does not fit the slow dissociation of the sensorgrams above it
Recall that pKd is obtained by taking minus log10 of the concentration measured in molar.

Prompt: I'd like to know its pKd. The binder in question is anti-NRG1 antibody 538.24.17 (antibody, human IgG1, V domains shown, also called YW538.24.17) VH: EVQLVESGGGLVQPGGSLRLSCAASGFTFSGTWIHWVRQAPGKGLEWVAAITPADGSTNYADSVKGRFTISADTSKNTAYLQMNSLRAEDTAVYYCATYMFAMDYWGQGTLVTVSS VL: DIQMTQSPSSLSASVGDRVTITCRASQDVSTAVAWYQQKPGKAPKLLIYSASFLYSGVPSRFSGSGSGTDFTLTISSLQPEDFATYYCQQSYWMPPTFGQGTKVEIKR
Response: 8.29

Prompt: Try this binder too: anti-NRG1 antibody 538.24.36 (antibody, human IgG1, V domains shown, also called YW538.24.36) VH: EVQLVESGGGLVQPGGSLRLSCAASGFTFSGTWIHWVRQAPGKGLEWVAAITPADGSTNYADSVKGRFTISADTSKNTAYLQMNSLRAEDTAVYYCATYMFAMDYWGQGTLVTVSS VL: DIQMTQSPSSLSASVGDRVTITCRASQNVDRSLAWYQQKPGKAPKLLIYAASSLESGVPSRFSGSGSGTDFTLTISSLQPEDFATYYCQQHYTLPFTFGQGTKVEIKR
Response: 7.88

Prompt: Try this binder too: anti-NRG1 antibody 538.24.71 (antibody, human IgG1, kappa, V domains shown, also called YW538.24.71) VH: EVQLVESGGGLVQPGGSLRLSCAASGFTFSGTWIHWVRQAPGKGLEWVAAITPADGSTNYADSVKGRFTISADTSKNTAYLQMNSLRAEDTAVYYCATYMFAMDYWGQGTLVTVSS VL: DIQMTQSPSSLSASVGDRVTITCRASQDVSISLAWYQQKPGKAPKLLIYGASNLESGVPSRFSGSGSGTDFTLTISSLQPEDFATYYCQQHYTLPFTFGQGTKVEIKR
Response: 8.70

Prompt: Try this binder too: anti-NRG1 antibody 538.24.94 (antibody, human IgG1, V domains shown, also called YW538.24.94) VH: EVQLVESGGGLVQPGGSLRLSCAASGFTFSGTWIHWVRQAPGKGLEWVAAITPADGSTNYADSVKGRFTISADTSKNTAYLQMNSLRAEDTAVYYCATYMFAMDYWGQGTLVTVSS VL: DIQMTQSPSSLSASVGDRVTITCRASQDVKKSLAWYQQKPGKAPKLLIYGASNLESGVPSRFSGSGSGTDFTLTISSLQPEDFATYYCQQHYTLPLTFGQGTKVEIKR
Response: 8.71
